protocolNotes: AUC in mouse at 30 mg/kg, po
Type: ADME, organism-based
assayConditions: in vivo
readoutType: AUC (µM·h)
A number alone suffices; assume µM·h.

Which AUC is reported for this molecule? CN(C)C(C)(C)c1cccc(-c2cc(-c3ccnn3C3CCOCC3)c3c(N)ncnn23)c1 6.23

* * *

protocolNotes: Clearance in mouse
Type: ADME, organism-based
assayConditions: in vivo
readoutType: clearance (mL/min/kg)
A number alone suffices; assume mL/min/kg.

Which clearance is reported for this compound? CN(C)C(C)(C)c1cccc(-c2cc(-c3ccnn3C3CCOCC3)c3c(N)ncnn23)c1 82.1

* * *

protocolNotes: Half life in mouse
Assay type: ADME, organism-based
assayConditions: in vivo
readoutType: half-life (h)
A number alone suffices; assume h.

Which half-life is reported for this compound? CN(C)C(C)(C)c1cccc(-c2cc(-c3ccnn3C3CCOCC3)c3c(N)ncnn23)c1 1

* * *

protocolNotes: Stability in mouse liver microsomes assessed as parent compound remaining at 0.5 uM after 10 mins by high throughput assay
Type: ADME, Microsome
assayConditions: read-out: Stability
remaining at 10 min, 0.5 µM strictly under 40% means true (1); at 40% or over means false (0).

Would you kindly verify if remaining at 10 min, 0.5 µM of CC(C)[C@H]1COC(=O)N1Cc1cccc(-c2cc(-c3ccnn3C3CCOCC3)c3c(N)ncnn23)c1 is strictly less than 40%? true (1)

Would you kindly verify if remaining at 10 min, 0.5 µM of CN(C)C1(c2cccc(-c3cc(-c4ccnn4C4CCOCC4)c4c(N)ncnn34)c2)COC1 is strictly less than 40%? false (0)

Would you kindly verify if remaining at 10 min, 0.5 µM of CN(C)C(C)(C)c1cccc(-c2cc(-c3ccnn3C3CCOCC3)c3c(N)ncnn23)c1 is strictly less than 40%? false (0)

Would you kindly verify if remaining at 10 min, 0.5 µM of Nc1ncnn2c(-c3cccc(C4(N5CCOCC5)COC4)c3)cc(-c3ccnn3C3CCOCC3)c12 is strictly less than 40%? true (1)

Would you kindly verify if remaining at 10 min, 0.5 µM of Nc1ncnn2c(-c3ccncc3)cc(-c3ccnn3C3CCCCC3)c12 is strictly less than 40%? true (1)

Would you kindly verify if remaining at 10 min, 0.5 µM of CN1C[C@H](O)C[C@@H]1c1cccc(-c2cc(-c3ccnn3C3CCOCC3)c3c(N)ncnn23)c1 is strictly less than 40%? false (0)

Would you kindly verify if remaining at 10 min, 0.5 µM of Nc1ncnn2c(-c3cccc(CN4CCCC4=O)c3)cc(-c3ccnn3C3CCOCC3)c12 is strictly less than 40%? true (1)

Would you kindly verify if remaining at 10 min, 0.5 µM of CC(C)C(=O)N1C[C@H](O)C[C@H]1c1cccc(-c2cc(-c3ccnn3C3CCOCC3)c3c(N)ncnn23)c1 is strictly less than 40%? true (1)

Would you kindly verify if remaining at 10 min, 0.5 µM of CC1(C)OC(=O)NC1c1cccc(-c2cc(-c3ccnn3C3CCOCC3)c3c(N)ncnn23)c1 (stereo not given) is strictly less than 40%? false (0)

Would you kindly verify if remaining at 10 min, 0.5 µM of CN1CCN(Cc2cccc(-c3cc(-c4ccnn4C4CCOCC4)c4c(N)ncnn34)c2)CC1 is strictly less than 40%? false (0)

* * *

Provide the reported log10(IC50) of each item.
targetDesc: Phosphatidylinositol 4,5-bisphosphate 3-kinase catalytic subunit delta isoform (Homo sapiens, UniProt O00329)
Sequence (O00329 whole entry, canonical isoform): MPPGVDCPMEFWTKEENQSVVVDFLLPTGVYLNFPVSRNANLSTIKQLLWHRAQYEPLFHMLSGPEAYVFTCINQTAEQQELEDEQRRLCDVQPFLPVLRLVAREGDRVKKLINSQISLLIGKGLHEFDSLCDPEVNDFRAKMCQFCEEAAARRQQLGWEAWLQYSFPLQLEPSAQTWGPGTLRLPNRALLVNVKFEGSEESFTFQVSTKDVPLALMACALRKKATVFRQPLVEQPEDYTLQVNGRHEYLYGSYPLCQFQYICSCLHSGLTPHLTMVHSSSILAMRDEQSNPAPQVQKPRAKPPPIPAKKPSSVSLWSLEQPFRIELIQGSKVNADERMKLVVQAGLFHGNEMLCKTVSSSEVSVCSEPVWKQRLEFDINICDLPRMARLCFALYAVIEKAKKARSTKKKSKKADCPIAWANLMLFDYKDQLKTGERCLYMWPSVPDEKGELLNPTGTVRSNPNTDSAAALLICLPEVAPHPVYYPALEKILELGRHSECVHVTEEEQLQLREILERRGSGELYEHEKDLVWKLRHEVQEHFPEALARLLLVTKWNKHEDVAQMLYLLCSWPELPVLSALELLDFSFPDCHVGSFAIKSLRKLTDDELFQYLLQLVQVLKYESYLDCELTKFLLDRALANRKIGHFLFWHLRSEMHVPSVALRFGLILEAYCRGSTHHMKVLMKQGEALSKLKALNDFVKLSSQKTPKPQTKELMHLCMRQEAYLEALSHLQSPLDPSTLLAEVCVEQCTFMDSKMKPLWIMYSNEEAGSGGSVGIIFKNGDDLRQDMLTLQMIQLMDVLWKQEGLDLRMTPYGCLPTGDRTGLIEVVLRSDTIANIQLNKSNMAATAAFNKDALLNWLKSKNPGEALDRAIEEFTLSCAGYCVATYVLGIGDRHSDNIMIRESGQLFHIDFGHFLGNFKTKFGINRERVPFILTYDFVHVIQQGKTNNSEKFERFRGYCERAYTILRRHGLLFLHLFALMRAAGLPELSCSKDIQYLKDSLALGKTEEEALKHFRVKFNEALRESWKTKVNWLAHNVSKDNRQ
All values: log10 IC50 [µM].

Which log10(IC50) is reported for this compound? CN(C)c1cccc(-c2cc(-c3ccnn3C3CCCCC3)c3c(N)ncnn23)c1 -2.52

Which log10(IC50) is reported for this compound? Nc1ncnn2c(-c3cccnc3)cc(-c3ccnn3C3CCCCCC3)c12 -0.64

Which log10(IC50) is reported for this compound? Nc1ncnn2c(-c3cccc(C(=O)N4CCCC4)c3)cc(-c3ccnn3C3CCCCC3)c12 -2.70

Which log10(IC50) is reported for this compound? Cn1cc(-c2cc(-c3ccnn3C3CCCCC3)c3c(N)ncnn23)cn1 -1.96

Which log10(IC50) is reported for this compound? Nc1ncnn2c(-c3ccncc3)cc(-c3ccnn3C3CCCCC3)c12 -1.66

Which log10(IC50) is reported for this compound? CC(C)Cn1nccc1-c1cc(-c2cccnc2)n2ncnc(N)c12 -0.60

Which log10(IC50) is reported for this compound? CN1CCN(Cc2cccc(-c3cc(-c4ccnn4C4CCOCC4)c4c(N)ncnn34)c2)CC1 -2.40

Which log10(IC50) is reported for this compound? Nc1ncnn2c(-c3cccc(CO)c3)cc(-c3ccnn3C3CCCCC3)c12 -1.57

Which log10(IC50) is reported for this compound? Nc1ncnn2c(-c3ccccc3)cc(-c3ccnn3C3CCCCC3)c12 -0.24

Which log10(IC50) is reported for this compound? CN1CCC(n2nccc2-c2cc(-c3cccnc3)n3ncnc(N)c23)CC1 -0.82

Which log10(IC50) is reported for this compound? CC(C)C(=O)N1C[C@H](O)C[C@H]1c1cccc(-c2cc(-c3ccnn3C3CCOCC3)c3c(N)ncnn23)c1 -3.00

Which log10(IC50) is reported for this compound? Nc1ncnn2c(-c3cccnc3)cc(-c3ccnn3C3CCOCC3)c12 -1.38

Which log10(IC50) is reported for this compound? Nc1ncnn2c(-c3cccnc3)cc(-c3ccnn3C3CCCC3)c12 -1.54
